# method-summary: Hemolytic activity in mouse erythrocytes assessed as haemoglobin release at 400 uM incubated for 1 hrs by microplate reader method
# Type: toxicity, cell-based, Erythrocyte
# run-parameters: read-out: Activity
measure-name: hemolysis at 1 h, 400 µM (%)
I only need the number, in %, no unit after it.

Reference set (4 entries):
H-LKKWLKKWTGKASQFFGLM-NH2 :: 7.88
H-LKKWTGKASQFFGLM-NH2 :: 1.01
H-LKKWLKKWTLKASQFFGLM-NH2 :: 19.5
H-LKKWTLKASQFFGLM-NH2 :: 11.2

# ---- query substance ----
Input line: Report hemolysis at 1 h, 400 µM for H-LKKWLKKWTPKASQFFGLM-NH2 please.
Output line: 2.94

====

# method-summary: Hemolytic activity in mouse erythrocytes assessed as haemoglobin release at 400 uM incubated for 1 hrs by microplate reader method
# Assay type: toxicity, cell-based, Erythrocyte
# run-parameters: read-out: Activity
measure-name: hemolysis at 1 h, 400 µM
I'd appreciate it if you wrote the number followed by its unit.

Input line: hemolysis at 1 h, 400 µM for CSCC[C@H](NC(=O)[C@H](CC(C)C)NC(=O)CNC(=O)[C@H](Cc1ccccc1)NC(=O)[C@H](Cc1ccccc1)NC(=O)[C@H](CCC(N)=O)NC(=O)[C@H](CO)NC(=O)[C@H](C)NC(=O)[C@H](CCCCN)NC(=O)CNC(=O)[C@@H](N)[C@H](C)O)C(N)=O ?
Output line: 5.05%
